Test system: EKVX
experimental-details: NCI tumour cell line growth inhibition, 48 h
Active and inactive are the calls of the source. No stated cut-off is given here; in the data, active = GI50 up to about 1.1 µM and inactive = higher.
Classes used: t = active, f = inactive

| compound | subject-of-test | class-assignment |
| --- | --- | --- |
| Oc1nc(S)nc2c1CCCN2 | EKVX | f |
| Cc1c(CCl)c(=O)oc2c(C)c3occ(CCl)c(=O)c3cc12 | EKVX | f |
| C=CC[N+](CCO)(CCO)CCCCCCCCCCCCCCCCCC | EKVX | f |
| CSC1=C(C(=O)N(COCC[Si](C)(C)C)c2ccccc2Br)CCC(C(C)(C)C)C1 (stereo not drawn) | EKVX | f |
| C=C(C)C(=O)O[C@H]1[C@H]2[C@H](OC(=O)[C@H]2C)[C@H](O)[C@@H](C)[C@@H]2C=CC(=O)[C@]21C | EKVX | f |
| COc1cc(C2NCCC(c3ccccc3)(c3ccccc3)N2)cc(OC)c1OC (stereo not drawn) | EKVX | f |
| O=C(O)CSc1nnc(-c2ccccc2)[nH]1 | EKVX | f |
| CCc1cccc(CC)c1NC(=O)CC1SC(N)=NC1=O (stereo not drawn) | EKVX | f |
| COc1cc2c3c(cc(Cl)nc3c1OC)C(O)(CC(C)=O)C(=O)N2 (stereo not drawn) | EKVX | f |
| C[C@H](CCC1=NCCN1)[C@H]1CC[C@H]2[C@@H]3CC[C@@H]4C[C@H](O)CC[C@]4(C)[C@H]3CC[C@]12C | EKVX | f |
| COc1ccc2[nH]cc(C=C3C(=O)NC(=S)NC3=O)c2c1 | EKVX | f |
| C/C=C/c1cc2c(c(=O)o1)C(=O)[C@@H](O)[C@H](C)O2 | EKVX | f |
| NNC(=S)N/N=C(/C(=O)Nc1cc(Cl)ccc1Cl)C1C(=O)Nc2ccccc2[S+]1[O-] (stereo not drawn) | EKVX | f |
| COc1ccc(NC(S)=Nc2ccccc2)cc1 | EKVX | f |
| Cc1cc(C)c(N[S+]([O-])c2cccc(Cl)c2)c(C)c1 (stereo not drawn) | EKVX | f |
| NCC(=O)NC(CO)C(=O)O (stereo not drawn) | EKVX | f |
| CC1=C(C(=O)Nc2ccccc2)C(c2ccc3c(c2)OCO3)C(C(=O)Nc2ccccc2)=C(C)N1 | EKVX | f |
| CN(C)c1c([O-])c(=[N+](C)C)c1=O | EKVX | f |
| CC1(C)CCc2cc3c(cc2O1)OCC1c2cc4c(cc2OC31)OCO4 (stereo not drawn) | EKVX | f |
| COc1c(C)c2nc3ccccc3nc2c2c(O)ccnc12 | EKVX | f |
| COc1cc(C2c3cc4c(cc3OC(NCCc3ccccc3)C2C)OCO4)cc(OC)c1OC (stereo not drawn) | EKVX | f |
| CC1=NN(c2cccc(S(=O)(=O)O)c2)C2(C1)C(Cl)C(=O)N2c1nc2ccccc2s1 (stereo not drawn) | EKVX | f |
| CC(C)=CCCc1c(C)ccc2c1C(=O)C(=O)C(C(C)C)=C2 | EKVX | f |
| Nc1nc(Cl)cc(NCC2(CO)COC2)n1 | EKVX | f |
| Cc1c2cccc-2c(OCCO)cc2c1[nH]c1ccccc12 | EKVX | t |
| CCN(CC)c1ccc2cc(C(N)=O)/c(=N/c3ccc(F)cc3)oc2c1 | EKVX | f |
| CCC1CCc2c(OC)ccc(OCC(=O)O)c2C1=O (stereo not drawn) | EKVX | f |
| Cn1c2c(c3ccccc31)CCN(CCCCN1CCN(c3cccc(Cl)c3)CC1)C2=O | EKVX | f |
| CC(C)(C)C#CI1OC(=O)c2ccccc21 | EKVX | f |
| CCN1C(c2ccccc2)=CC(c2ccccc2)(C(Cl)(Cl)Cl)C=C1c1ccccc1 | EKVX | f |
| O=CC1C(Cl)=Nc2nc3ccccc3n2C1c1ccc([N+](=O)[O-])cc1 (stereo not drawn) | EKVX | f |
| O=C(NC(=S)Nc1ccc2c(c1)Sc1ccccc1O2)c1ccc([N+](=O)[O-])cc1 | EKVX | f |
| COc1cc(Nc2cnc3cc(F)c(F)cc3n2)cc(OC)c1 | EKVX | f |
| COC(=O)C(NC(=O)CNC(=O)CSc1nnc(COc2ccc(Cl)cc2)n1-c1ccccc1)C(C)C (stereo not drawn) | EKVX | f |
| CSC(=S)NN=C1CCCC1.CSC(=S)NN=C1CCCC1.[Zn+2] | EKVX | f |
| CCc1cccc(C)c1NC(=O)CC1Sc2ccccc2NC1=O (stereo not drawn) | EKVX | f |
| COc1ccccc1NC(=S)N/N=C/c1ccccn1 | EKVX | t |
| CN1CCC2(c3ccccc3)CC(=O)/C(=C/c3ccc(Cl)c(Cl)c3)C1C2.[O-][Cl+3]([O-])([O-])O (stereo not drawn) | EKVX | f |
| O=C1C=C(Cl)C(=O)C(c2ccc(Cl)cc2)=C1 | EKVX | f |
| CC(=O)NC1(C)CCC(C(C)(C)NC(C)=O)CC1 (stereo not drawn) | EKVX | f |
| COc1ccc(/C=C/C(=O)c2c(-c3ccccc3)nn(C)c(=O)c2N2CCCCC2)cc1 | EKVX | f |
| CCOC(=O)c1c(C)n(Cc2ccc(Cl)cc2Cl)c2c1cc(O)c1[nH]c3c(c12)CCCC3 | EKVX | f |
| C/C=C(/C)C(=O)O[C@H]1C(C)=C[C@]23C(=O)[C@@H](C=C(COC(C)=O)[C@@H](O)[C@]12O)[C@H]1[C@@H](C[C@H]3C)[C@@]1(C)OC(=O)/C(C)=C\C | EKVX | f |

Sourced from ChEMBL document CHEMBL1201862
